Assay: in vivo
Details: mouse, iv, Maus i.v.
assayReadout: LD50 (mg/kg)

>>> quantitativereadout("COC(=O)C1=C(C)NC(C)=C(C(=O)OCCCN2CCC(n3c(=O)[nH]c4ccccc43)CC2)C1c1cccc([N+](=O)[O-])c1 (stereo not shown) [Beispiel 4]")
128
